assay: total protein half-life in vivo (active degradation + dilution); higher = more stable protein; conditions: wild type E. coli NCM3722; growth: C-lim chemostat; doubling time 6 h
MEASURE: total protein half-life in vivo (h)
API: value field is a number in h; no unit string.

MONOMER_SEQUENCE | total protein half-life in vivo / h
MIEADRLISAGTTLPEDVADRAIRPKLLEEYVGQPQVRSQMEIFIKAAKLRGDALDHLLIFGPPGLGKTTLANIVANEMGVNLRTTSGPVLEKAGDLAAMLTNLEPHDVLFIDEIHRLSPVVEEVLYPAMEDYQLDIMIGEGPAARSIKIDLPPFTLIGATTRAGSLTSPLRDRFGIVQRLEFYQVPDLQYIVSRSARFMGLEMSDDGALEVARRARGTPRIANRLLRRVRDFAEVKHDGTISADIAAQALDMLNVDAEGFDYMDRKLLLAVIDKFFGGPVGLDNLAAAIGEERETIEDVLEPYLIQQGFLQRTPRGRMATTRAWNHFGITPPEMP [P0A812] | 3.53

Could you now consider this next sequence?
## Input So what's the measured total protein half-life in vivo for this one? MSVFSLKIDIADNKFFNGETSPLFSQSQAKLARQFHQKIAGYRPTPLCALDDLANLFGVKKILVKDESKRFGLNAFKMLGGAYAIAQLLCEKYHLDIETLSFEHLKNAIGEKMTFATTTDGNHGRGVAWAAQQLGQNAVIYMPKGSAQERVDAILNLGAECIVTDMNYDDTVRLTMQHAQQHGWEVVQDTAWEGYTKIPTWIMQGYATLADEAVEQMREMGVTPTHVLLQAGVGAMAGGVLGYLVDVYSPQNLHSIIVEPDKADCIYRSGVKGDIVNVGGDMATIMAGLACGEPNPLGWEILRNCATQFISCQDSVAALGMRVLGNPYGNDPRIISGESGAVGLGVLAAVHYHPQRQSLMEKLALNKDAVVLVISTEGDTDVKHYREVVWEGKHAVAP
## Output 4.2
